tgt: SPAK (Homo sapiens)
readout.type: IC50 (µM)
Answers are plain numbers, in µM.

Prompt line: // IC50 lookup, key: Nc1ncnc2occ(-c3ccc(NC(=O)Nc4cc(C(F)(F)F)ccc4F)cc3)c12
Response line: 8.23
